Recorded values, source patent US9604998B2.

molecular target: Kir1.1 (ROMK1) (Homo sapiens (Human), UniProt P48048); experiment: Electrophysiology Assay (whole cell voltage clamp, IonWorks Quattro); type: cell-based; details: Chinese hamster ovary cells stably expressing Kir1.1; block during voltage step to 0 mV; read-out: Electrophysiology IC50
Sequence (P48048 whole entry, species assumed): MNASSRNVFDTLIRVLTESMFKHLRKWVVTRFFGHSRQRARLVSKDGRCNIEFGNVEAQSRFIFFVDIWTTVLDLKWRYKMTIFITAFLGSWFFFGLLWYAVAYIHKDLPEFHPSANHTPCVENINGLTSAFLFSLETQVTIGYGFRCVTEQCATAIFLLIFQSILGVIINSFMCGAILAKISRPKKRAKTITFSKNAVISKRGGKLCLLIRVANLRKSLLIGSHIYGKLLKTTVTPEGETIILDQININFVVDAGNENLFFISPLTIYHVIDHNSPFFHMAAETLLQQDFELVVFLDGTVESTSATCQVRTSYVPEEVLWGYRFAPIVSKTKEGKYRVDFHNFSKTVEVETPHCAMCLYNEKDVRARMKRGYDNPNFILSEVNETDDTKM
measurement.type: IC50 (nM)

[[record]]
molecule = "COc1cc(CCN2CCN3C[C@@H](c4ccc5c(c4)C[C@H](C)OC5=O)OC[C@@H]3C2)ccc1C#N [Example 85]"
experimental_system = "Kir1.1 (ROMK1) (Homo sapiens (Human), UniProt P48048)"
readout_number = 90

[[record]]
molecule = "Cc1c(C(C)CN2CCN3C[C@@H](c4ccc5c(c4C)COC5=O)OC[C@@H]3C2)ccc2c1COC2=O (stereo partly drawn) [Example 90]"
experimental_system = "Kir1.1 (ROMK1) (Homo sapiens (Human), UniProt P48048)"
readout_number = 230

[[record]]
molecule = "COc1cc(C(O)CN2CCN3C[C@H](c4ccc5c(c4C)COC5=O)OC[C@H]3C2)c(F)cc1C#N (stereo partly drawn) [Example 36]"
experimental_system = "Kir1.1 (ROMK1) (Homo sapiens (Human), UniProt P48048)"
readout_number = 120

[[record]]
molecule = "Cc1c([C@@H]2CN3CCN(CCc4ccc5c(c4)COC5=O)C[C@@H]3CN2)ccc(F)c1C#N [Example 105]"
experimental_system = "Kir1.1 (ROMK1) (Homo sapiens (Human), UniProt P48048)"
readout_number = 150

[[record]]
molecule = "Cc1c([C@@H]2CN3CCN(CC(O)c4cccc(-n5cnnn5)c4)C[C@@H]3CO2)ccc(F)c1C#N (single isomer, unassigned) [Example 22]"
experimental_system = "Kir1.1 (ROMK1) (Homo sapiens (Human), UniProt P48048)"
readout_number = 440

[[record]]
molecule = "Cc1c([C@@H]2CN3CCN(CCc4ccc5c(c4)C[C@@H](C)OC5=O)C[C@H]3CO2)ccc2c1COC2=O [Example 87]"
experimental_system = "Kir1.1 (ROMK1) (Homo sapiens (Human), UniProt P48048)"
readout_number = 50


====

molecular target: Kir1.1 (ROMK1) (Homo sapiens (Human), UniProt P48048); experiment: Electrophysiology Assay (whole cell voltage clamp, IonWorks Quattro); type: cell-based; details: Chinese hamster ovary cells stably expressing Kir1.1; block during voltage step to 0 mV; read-out: Electrophysiology IC50
measurement.type: IC50 (nM)

[[record]]
molecule = "COc1cc([C@H]2CN3CCN(CCc4ccc5c(c4C)COC5=O)C[C@@H]3CO2)ccc1C#N"
measurement_type = "IC50"
quantity_unit = "nM"
readout_number = 70

[[record]]
molecule = "Cc1c(CCN2CCN3C[C@@H](c4ccc5c(c4)CCOC5=O)OC[C@@H]3C2)ccc2c1COC2=O"
measurement_type = "IC50"
quantity_unit = "nM"
readout_number = 300

[[record]]
molecule = "Cc1c([C@@H]2CN3CCN(C[C@H](O)c4ccc5c(c4)COC5=O)C[C@@H]3CN2)ccc(F)c1C#N"
measurement_type = "IC50"
quantity_unit = "nM"
readout_number = 200

[[record]]
molecule = "Cc1c([C@@H]2CN3CCN(C[C@H](O)c4ccc5c(c4C)COC5=O)C[C@H]3CO2)ccc2c1COC2=O"
measurement_type = "IC50"
quantity_unit = "nM"
readout_number = 50

[[record]]
molecule = "Cc1c([C@@H]2CN3CCN(CC(O)c4ccc(-n5cnnn5)nc4)C[C@H]3CO2)ccc(F)c1C#N (single isomer, unassigned)"
measurement_type = "IC50"
quantity_unit = "nM"
readout_number = 80

[[record]]
molecule = "Cc1c(CCN2CCN3C[C@H](c4ccc5c(c4)COC5=O)OC[C@@H]3C2)ccc2c1COC2=O"
measurement_type = "IC50"
quantity_unit = "nM"
readout_number = 30

[[record]]
molecule = "Cc1c([C@H]2CN3CCN(CCc4ccc5c(c4C)COC5=O)C[C@@H]3CO2)ccc(F)c1C#N"
measurement_type = "IC50"
quantity_unit = "nM"
readout_number = 70

